The measurements presented in this section are drawn from patent US7923465B2.

- experimentalSystem: CB1 (Rattus norvegicus, UniProt P20272)
- Sequence (P20272 whole entry): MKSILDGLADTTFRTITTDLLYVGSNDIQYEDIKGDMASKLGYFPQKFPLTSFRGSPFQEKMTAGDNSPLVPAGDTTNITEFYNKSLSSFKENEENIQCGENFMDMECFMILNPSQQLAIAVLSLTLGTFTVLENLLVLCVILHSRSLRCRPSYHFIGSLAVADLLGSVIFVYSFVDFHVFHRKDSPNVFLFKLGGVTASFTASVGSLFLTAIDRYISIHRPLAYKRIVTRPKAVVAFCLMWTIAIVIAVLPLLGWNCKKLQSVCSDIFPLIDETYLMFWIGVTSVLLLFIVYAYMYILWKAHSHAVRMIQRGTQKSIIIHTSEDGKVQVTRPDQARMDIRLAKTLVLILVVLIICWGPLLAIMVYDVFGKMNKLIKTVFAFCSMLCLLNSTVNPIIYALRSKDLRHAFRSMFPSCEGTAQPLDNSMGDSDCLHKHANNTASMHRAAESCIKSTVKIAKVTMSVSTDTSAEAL
- procedureSummary: Rat CB1 receptor binding using brain membrane, [3H]SR141716A displacement (Protocol I)
- Parameters: CB1 receptor present in a rat brain membrane preparation; from tissue; host or cells: rat brain membrane
- condition: rat brain membrane, [3H]SR141716A displacement
measureName: % Displacement Protocol I (%)
Output spec: scalar in %, unitless text.

1. O=C(c1nn(-c2ccc(Cl)cc2)c2c1C1CC3CC(C1)CC2C3)N1CCCCC1 [Example 141] : 17

Prompt: What does the data say about its % Displacement Protocol I? Entry: O=C(NN1CCCCC1)c1nn(-c2ccccc2)c2c1C1CC3CC(C1)CC2C3 [Example 169]
Response: 19

Prompt: Next entry: O=C(NNc1ccc(Cl)cc1)c1nn(-c2ccc(Cl)cc2)c2c1C1CC3CC(C1)CC2C3 [Example 125]
Response: 52.7

Prompt: Next entry: O=C(NN1CCCCC1)c1n[nH]c2c1C1CC3CC(CC2C3)C1 [Example 187]
Response: 6.0
